// read-out Ki, gathered for Histamine H3 receptor (Rattus norvegicus, UniProt Q9QYN8) from published studies
// units = nM; emit number, no label

- C[C@@H]1CCCN1CCCOc1ccc(C2=NNC(=O)C(C)(C)C2)cc1: 13
- CC1=NNC(=O)CC1c1ccc(OC2CCN(C3CCC3)CC2)cc1 (stereo unspecified): 13

Suppose we examine the compound `CCCCCC(=O)c1ccc(OCCCN2CCN(C(=O)[C@@H](N)Cc3ccncc3)CC2)cc1` ; what Ki value has been reported?
10.2

Follow-up entry: `C[C@@H](NC(=O)c1ccco1)C(=O)N1CCCN(CCCOc2ccc(-c3noc(-c4cccs4)n3)c(F)c2)CC1`
6.2

Follow-up entry: `CCCCCC(=O)c1ccc(OCCCN2CCN(C(=O)c3ccncc3)CC2)cc1`
6.31

Follow-up entry: `O=C(C1CC1)N1CCC(Oc2ccc3c(c2)CCC2(CCN(C4CCC4)CC2)O3)CC1`
16

---

// read-out pKi, gathered for Histamine H3 receptor (Rattus norvegicus) from published studies
To interpret pKi, take it as minus log10 of a concentration measured in moles per litre.

• CCOC(=O)N1CCN(CCCOc2ccc(C(=O)C=C(C)C)cc2)CC1 = 7.41
• C[C@H]1CC[C@H](C)N1C(=O)c1ccc(-c2ccc(OCCCN3CC[C@H](O)C3)cc2)cc1 = 7.24
• CN(C)CCCOc1c(Br)cc(CN(C)C)cc1Br = 6.50
• CN(C)CCc1ccc2cc(-c3ccc(C#N)cc3)ccc2c1 = 7.34
• CC1CCN(C(=O)c2ccc(-c3ccc(OCCCN4[C@@H](C)CC[C@@H]4C)cc3)cc2)CC1 = 8.53

Suppose we examine the compound `C[C@@H]1CCCN1CCc1cc2cc(Nc3cncnc3)ccc2o1` ; what pKi value has been reported?
9.57

Follow-up entry: `C[C@@H](NC(=O)c1ccc(Br)cc1)C(=O)N1CCN(CCCOc2ccc(-c3noc(CC4CCCC4)n3)c(F)c2)CC1`
8.21

Follow-up entry: `C[C@@H]1CCCN1CCc1ccc2cc(-c3ccc(C#N)cc3)ccc2c1`
8.61

Follow-up entry: `C[C@@H](NC(=O)c1ccco1)C(=O)N1CCCN(CCCOc2ccc(-c3noc(C4CC4)n3)c(F)c2)CC1`
8.82

---

// read-out log10(Ki), gathered for Histamine H3 receptor (Rattus norvegicus, UniProt Q9QYN8) from published studies
Remember, log10 of Ki, in nM.

* CCCCCC(=O)c1ccc(OCCCN2CCN(C(=O)NCC)CC2)cc1 | 1.33
* CCCCCC(=O)c1ccc(OCCCN2CCN(C(=O)OCCCC)CC2)cc1 | 1.31
* Cc1cc(N2CCC(N3CCCC3C)C2)ccc1NC(=O)c1cc(F)ccc1C (stereo unspecified) | 1.22
* N=C(N)N(CCCCN1CCN(CCCCCCCOc2ccccc2)CC1)Cc1ccc(Cl)cc1 | 1.40
* CC1CC(=O)NN=C1c1ccc(OCCCN2CCCC2)cc1 (racemic) | 1.93

Lab note: need log10(Ki) for `CCCCCC(=O)c1ccc(OCCCN2CCN(C(=O)c3c[nH]cn3)CC2)cc1` on Histamine H3 receptor (Rattus norvegicus, UniProt Q9QYN8), anyone have it?
0.65

---

// read-out log10 Ki, gathered for Histamine H3 receptor (Rattus norvegicus) from published studies
Remember, log10 of Ki, in µM.

Worked examples follow.
- CCOC(=O)N1CCN(CCCOc2ccc(C(C)=O)cc2)CC1: -2.30
- O=C1CCCCN1Cc1ccc(-c2ccc(CN3CCCCC3)cc2)cc1: -0.94
- O=S1(=O)CCC(Oc2ccc3c(c2)CCC2(CCN(C4CCC4)CC2)O3)C1 (configuration not stated): -1.36

Lab note: need log10 Ki for `CCCCCC(=O)c1ccc(OCCCN2CCN(C(=O)c3sccc3Cl)CC2)cc1` on Histamine H3 receptor (Rattus norvegicus), anyone have it?
-1.53
